experiment: inhibitors of HIV-1 Env-driven cell-cell fusion, primary screen, HeLa-JRFL effector, CEM21 target cells, luciferase (AID 651610); settings: at 16.7 µM unless noted
Hit rate of the full screen: of about 360,000 compounds, about 3,900 (1.1%) were called active.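 How the source made its calls: active means mean replicate inhibition score of at least 50 and every replicate individually at or above 50; inconclusive means only one of the two criteria met; inactive means mean below 50 and not all replicates reaching 50.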 Only a selection was taken, and actives are over-represented in it overall.
The reply should be one of these categories: active, inactive

Before answering, review these 5 worked examples.
>  <compound>
OCCCNc1nccc(-c2cc(Nc3cccc(Cl)c3)ncn2)n1

>  <label-class>
active

$$$$
>  <compound>
Nc1ccn(CC(=O)N2CCN(c3ccccn3)CC2)c(=O)n1

>  <label-class>
inactive

$$$$
>  <compound>
CCOC(=O)C1=C(CN2CCc3ccccc32)NC(=O)NC1c1ccc(Cl)cc1 (configuration not stated)

>  <label-class>
active

$$$$
>  <compound>
C[C@@H]1CN([C@@H](C)CO)C(=O)c2cc(NC(=O)Nc3ccc4c(c3)OCO4)ccc2O[C@@H]1CN(C)C(=O)Nc1ccc2c(c1)OCO2

>  <label-class>
inactive

$$$$
>  <compound>
COc1ccc(NC(=O)N(C)C[C@@H]2Oc3ccc(NS(=O)(=O)c4ccc(C)cc4)cc3CC(=O)N([C@@H](C)CO)C[C@H]2C)cc1

>  <label-class>
inactive

$$$$

How was O=C(NC(c1ccc(Cl)cc1)c1cnccn1)C1CCN(Cc2ccc(Cl)cc2)CC1 (configuration not stated) classified in this test?
inactive

Also check `COCC(=O)Nc1ccc2c(c1)C(=O)N(C)C[C@H](OC)[C@@H](C)CN(C(=O)Cc1cccnc1)[C@@H](C)CO2`
inactive
